Molecular target: UniProt:P26439
Sequence (P26439 1-372): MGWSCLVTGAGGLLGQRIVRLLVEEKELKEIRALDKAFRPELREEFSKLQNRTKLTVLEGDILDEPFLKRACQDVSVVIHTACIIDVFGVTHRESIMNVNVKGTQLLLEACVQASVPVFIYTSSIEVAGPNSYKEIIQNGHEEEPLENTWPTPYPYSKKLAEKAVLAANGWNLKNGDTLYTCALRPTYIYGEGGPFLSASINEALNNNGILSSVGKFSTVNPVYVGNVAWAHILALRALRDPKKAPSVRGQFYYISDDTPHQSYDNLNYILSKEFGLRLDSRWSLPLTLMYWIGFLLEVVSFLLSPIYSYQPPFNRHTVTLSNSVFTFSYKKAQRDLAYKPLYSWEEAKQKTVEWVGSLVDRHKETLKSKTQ
measured metric: Ki

Name the recorded Ki for C[C@]12C=CC(=O)N[C@@H]1CC[C@@H]1[C@@H]2CC[C@]2(C)[C@@H](C(=O)Nc3cc(C(F)(F)F)ccc3C(F)(F)F)CC[C@@H]12 .
> 1000 nM

====

target: human type 1 5α-reductase (Homo sapiens, UniProt P18405); assay: Steroid 5α-reductase type 1 inhibition (microsomes, conversion of testosterone to DHT)
Sequence (P18405 whole entry): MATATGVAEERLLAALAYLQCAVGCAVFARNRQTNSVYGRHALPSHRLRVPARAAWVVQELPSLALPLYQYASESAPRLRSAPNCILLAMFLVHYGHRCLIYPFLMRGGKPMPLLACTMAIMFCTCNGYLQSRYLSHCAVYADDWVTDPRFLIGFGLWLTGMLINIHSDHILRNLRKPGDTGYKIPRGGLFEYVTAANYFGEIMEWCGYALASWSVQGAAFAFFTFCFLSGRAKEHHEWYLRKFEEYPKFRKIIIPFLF
measured metric: IC50

Lookup: IC50 / human type 1 5α-reductase (Homo sapiens, UniProt P18405) / C[C@]12C=CC(=O)N[C@@H]1CC[C@@H]1[C@@H]2CC[C@]2(C)[C@@H](C(=O)Nc3cc(C(F)(F)F)ccc3C(F)(F)F)CC[C@@H]12
< 1 nM

====

Target: human type 2 5α-reductase (Homo sapiens)
Sequence (P31213 1-254): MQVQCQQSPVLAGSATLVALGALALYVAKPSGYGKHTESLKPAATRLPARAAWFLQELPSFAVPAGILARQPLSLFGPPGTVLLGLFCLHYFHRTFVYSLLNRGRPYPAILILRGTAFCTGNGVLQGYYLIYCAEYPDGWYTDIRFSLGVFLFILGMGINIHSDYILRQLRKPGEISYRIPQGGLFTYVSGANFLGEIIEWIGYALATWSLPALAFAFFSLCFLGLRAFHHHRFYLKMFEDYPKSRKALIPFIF
Test: Steroid 5α-reductase type 2 inhibition (microsomes, conversion of testosterone to DHT)
measured metric: IC50

Name the recorded IC50 for C[C@]12C=CC(=O)N[C@@H]1CC[C@@H]1[C@@H]2CC[C@]2(C)[C@@H](C(=O)Nc3cc(C(F)(F)F)ccc3C(F)(F)F)CC[C@@H]12 .
< 1 nM
